# System: EPHB4 (Homo sapiens)
# Construct: purchased ReactionBiology
# Sequence (P54760 16-987): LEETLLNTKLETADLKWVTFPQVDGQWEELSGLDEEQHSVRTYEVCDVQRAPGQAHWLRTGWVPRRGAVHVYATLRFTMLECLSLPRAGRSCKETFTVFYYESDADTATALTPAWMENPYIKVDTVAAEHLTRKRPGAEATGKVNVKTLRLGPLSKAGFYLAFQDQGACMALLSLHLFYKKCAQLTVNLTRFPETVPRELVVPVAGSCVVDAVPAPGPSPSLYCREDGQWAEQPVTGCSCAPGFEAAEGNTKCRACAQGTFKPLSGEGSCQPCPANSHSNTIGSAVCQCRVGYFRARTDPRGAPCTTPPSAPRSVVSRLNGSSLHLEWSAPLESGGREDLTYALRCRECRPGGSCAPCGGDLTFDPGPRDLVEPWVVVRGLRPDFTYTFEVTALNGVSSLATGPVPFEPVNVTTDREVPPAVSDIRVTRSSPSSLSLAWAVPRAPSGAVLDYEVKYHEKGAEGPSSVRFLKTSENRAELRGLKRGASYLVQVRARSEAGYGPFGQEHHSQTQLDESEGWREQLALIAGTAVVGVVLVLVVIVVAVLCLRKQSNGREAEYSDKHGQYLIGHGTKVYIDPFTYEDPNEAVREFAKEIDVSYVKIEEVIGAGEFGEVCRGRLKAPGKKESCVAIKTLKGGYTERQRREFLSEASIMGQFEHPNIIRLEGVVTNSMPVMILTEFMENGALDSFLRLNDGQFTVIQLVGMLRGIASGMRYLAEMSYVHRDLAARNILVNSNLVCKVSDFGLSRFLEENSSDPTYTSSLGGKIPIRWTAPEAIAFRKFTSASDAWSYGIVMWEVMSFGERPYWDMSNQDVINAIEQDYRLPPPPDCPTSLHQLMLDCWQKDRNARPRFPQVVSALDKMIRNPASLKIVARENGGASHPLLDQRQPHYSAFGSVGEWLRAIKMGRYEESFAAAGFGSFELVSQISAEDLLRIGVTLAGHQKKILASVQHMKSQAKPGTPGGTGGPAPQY
# Test details: Kinase activity test (ReactionBiology), % enzyme activity relative to DMSO;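 as to % Enzyme Activity (relative to DMSO controls), Average: EPHB4 was one of ten selected kinases in the screening panel, with enzyme activity expressed as a percentage of DMSO controls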
# Assay type: biochemical
# Details: EPHB4; 10 uM; Average; read-out: % Enzyme Activity (relative to DMSO controls), Average
Endpoint name: remaining activity at 10 µM

Examples with answers:
{"Molecule": "NCCCCCC(=O)O [Aminocaproic acid]", "Result": "93.5%"}
{"Molecule": "NC(=O)c1cccnc1 [Niacinamide, reference compound]", "Result": "69.7%"}
{"Molecule": "Cc1cccc(C)c1OCC(=O)N[C@@H](Cc1ccccc1)[C@@H](O)C[C@H](Cc1ccccc1)NC(=O)[C@H](C(C)C)N1CCCNC1=O [Lopinavir, reference compound]", "Result": "87.3%"}

Incoming: Fill in reported remaining activity at 10 µM for this entry: CC(=O)O[C@H]1C[C@@]2(C)[C@@H](C[C@@H](O)[C@H]3[C@@]4(C)CC[C@@H](O)[C@@H](C)[C@@H]4CC[C@@]32C)/C1=C(\CCC=C(C)C)C(=O)O [Fusidic acid]
Outgoing: 92.3%

Incoming: Supply measured remaining activity at 10 µM of Nc1ncnc2c1ncn2[C@@H]1O[C@H](CO)[C@@H](O)[C@H]1O [Adenosine, reference compound] in your reply.
Outgoing: 85.4%

----------
The reader will find reported remaining activity at 1 µM values listed item by item below.
# System: CK1d (Homo sapiens)
# Construct: purchased ReactionBiology
# Sequence (P48730 whole entry): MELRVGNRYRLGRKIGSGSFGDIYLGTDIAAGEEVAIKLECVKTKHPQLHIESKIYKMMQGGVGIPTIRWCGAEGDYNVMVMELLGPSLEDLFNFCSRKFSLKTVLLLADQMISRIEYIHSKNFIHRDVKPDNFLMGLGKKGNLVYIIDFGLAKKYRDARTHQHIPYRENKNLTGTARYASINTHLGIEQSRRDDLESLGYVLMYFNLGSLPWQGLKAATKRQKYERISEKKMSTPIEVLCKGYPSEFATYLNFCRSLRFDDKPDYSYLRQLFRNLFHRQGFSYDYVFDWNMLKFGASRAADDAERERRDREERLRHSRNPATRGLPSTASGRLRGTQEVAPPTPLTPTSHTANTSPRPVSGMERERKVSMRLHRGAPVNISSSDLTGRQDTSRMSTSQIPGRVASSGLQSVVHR
# Test details: Kinase activity test (ReactionBiology), % enzyme activity relative to DMSO
# Format: biochemical
# Details: CK1d; 1 uM; replicate Data 2; read-out: % Enzyme Activity (relative to DMSO controls), Data 2
Answer with a number only, understood to be in %.

Consider the following illustrative entries.
{"Compound": "O=C(O)c1ccccc1O", "remaining activity at 1 µM, %": 103}
{"Compound": "NC(=O)c1cccnc1 [Niacinamide, reference compound]", "remaining activity at 1 µM, %": 119}
{"Compound": "NCCCCCC(=O)O", "remaining activity at 1 µM, %": 120}

Incoming: Supply recorded remaining activity at 1 µM for CCN(CC)Cc1cc(Nc2ccnc3cc(Cl)ccc23)ccc1O [Amodiaquine, reference compound] here.
Outgoing: 108

Incoming: Specify remaining activity at 1 µM for Oc1cc(Cl)ccc1Oc1ccc(Cl)cc1Cl [Triclosan, reference compound] and stop.
Outgoing: 98.3

Incoming: Check the records and state remaining activity at 1 µM for CC(C)(C)NC(=O)[C@@H]1C[C@@H]2CCCC[C@@H]2CN1C[C@@H](O)[C@H](Cc1ccccc1)NC(=O)[C@H](CC(N)=O)NC(=O)c1ccc2ccccc2n1 [Saquinavir, reference compound]
Outgoing: 111

Incoming: Quickly give me recorded remaining activity at 1 µM for Cc1ccc(C(=O)c2cc(O)c(O)c([N+](=O)[O-])c2)cc1 [Tolcapone, reference compound]
Outgoing: 91.9

Incoming: Give the measured remaining activity at 1 µM for C[C@]12CC[C@@H]3c4ccc(O)cc4CC[C@H]3[C@@H]1CC[C@@H]2O [Estradiol, reference compound]
Outgoing: 102

----------
# System: DAPK1 (Homo sapiens, UniProt P53355)
# Construct: purchased ReactionBiology
# Sequence (P53355 whole entry): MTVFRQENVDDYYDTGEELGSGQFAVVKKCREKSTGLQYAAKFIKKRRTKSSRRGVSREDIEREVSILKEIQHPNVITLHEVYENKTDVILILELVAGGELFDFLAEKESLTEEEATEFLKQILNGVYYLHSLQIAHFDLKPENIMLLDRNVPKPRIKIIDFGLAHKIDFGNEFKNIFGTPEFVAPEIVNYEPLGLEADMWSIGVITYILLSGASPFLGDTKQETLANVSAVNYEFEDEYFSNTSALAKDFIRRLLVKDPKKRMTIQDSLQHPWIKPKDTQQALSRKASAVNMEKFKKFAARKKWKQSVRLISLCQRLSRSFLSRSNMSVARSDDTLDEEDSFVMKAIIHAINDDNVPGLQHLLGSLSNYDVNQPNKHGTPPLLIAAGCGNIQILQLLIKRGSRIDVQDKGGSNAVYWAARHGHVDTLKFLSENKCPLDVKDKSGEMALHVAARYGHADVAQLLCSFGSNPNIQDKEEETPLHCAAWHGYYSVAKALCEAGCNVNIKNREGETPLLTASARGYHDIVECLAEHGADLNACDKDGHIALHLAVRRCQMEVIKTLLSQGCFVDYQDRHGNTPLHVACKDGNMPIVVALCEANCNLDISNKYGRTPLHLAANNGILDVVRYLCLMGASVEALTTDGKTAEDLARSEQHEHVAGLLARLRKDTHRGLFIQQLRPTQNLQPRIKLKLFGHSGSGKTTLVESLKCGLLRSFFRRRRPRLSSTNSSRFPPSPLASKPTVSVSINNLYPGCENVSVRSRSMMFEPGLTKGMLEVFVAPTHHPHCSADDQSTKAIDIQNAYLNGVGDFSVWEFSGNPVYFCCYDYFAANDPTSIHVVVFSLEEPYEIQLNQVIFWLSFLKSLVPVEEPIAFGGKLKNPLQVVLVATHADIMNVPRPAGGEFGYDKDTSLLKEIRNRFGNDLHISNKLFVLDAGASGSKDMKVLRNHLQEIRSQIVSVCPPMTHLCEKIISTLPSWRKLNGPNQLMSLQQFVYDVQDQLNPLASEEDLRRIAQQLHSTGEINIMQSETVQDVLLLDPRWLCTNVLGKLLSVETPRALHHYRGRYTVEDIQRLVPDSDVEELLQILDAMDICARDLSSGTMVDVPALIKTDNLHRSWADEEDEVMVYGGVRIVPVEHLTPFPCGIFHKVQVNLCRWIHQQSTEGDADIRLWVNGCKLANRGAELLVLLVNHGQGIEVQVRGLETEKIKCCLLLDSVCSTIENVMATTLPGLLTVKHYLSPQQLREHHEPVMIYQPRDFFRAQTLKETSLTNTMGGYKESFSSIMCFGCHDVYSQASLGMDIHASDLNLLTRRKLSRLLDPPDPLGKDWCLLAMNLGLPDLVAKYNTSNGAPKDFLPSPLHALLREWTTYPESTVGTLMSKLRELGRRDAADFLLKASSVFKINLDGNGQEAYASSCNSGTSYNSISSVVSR
# Test details: Kinase activity test (ReactionBiology), % enzyme activity relative to DMSO
# Assay type: biochemical
# Details: DAPK1; 1 uM; replicate Data 1; read-out: % Enzyme Activity (relative to DMSO controls), Data 1
remaining activity at 1 µM reference
Output spec: scalar in %, unitless text.

{"Compound": "CC(=O)O[C@H]1C[C@@]2(C)[C@@H](C[C@@H](O)[C@H]3[C@@]4(C)CC[C@@H](O)[C@@H](C)[C@@H]4CC[C@@]32C)/C1=C(\\CCC=C(C)C)C(=O)O", "Readout units": "%", "remaining activity at 1 µM": 102}
{"Compound": "C=CC(=O)N1CCC[C@@H](n2nc(-c3ccc(Oc4ccccc4)cc3)c3c(N)ncnc32)C1 [Ibrutinib, reference compound]", "Readout units": "%", "remaining activity at 1 µM": 97.4}
{"Compound": "NC(=O)c1cccnc1 [Niacinamide, reference compound]", "Readout units": "%", "remaining activity at 1 µM": 112}
{"Compound": "Cc1nc(Nc2ncc(C(=O)Nc3c(C)cccc3Cl)s2)cc(N2CCN(CCO)CC2)n1 [Dasatinib, reference compound]", "Readout units": "%", "remaining activity at 1 µM": 91.8}

Incoming: Given CN(C)CCOc1ccc(/C(=C(/CCCl)c2ccccc2)c2ccccc2)cc1 [Toremifene, reference compound] , respond with its remaining activity at 1 µM.
Outgoing: 70.4
